Ref: ChEMBL document CHEMBL5385966

Provide the reported CC50 of each item.
assay-text: Cytotoxicity against African green monkey Vero cells by MTT assay
Type: toxicity, cell-based
conditions-used: chlorocebus sabaeus

molecular-string: O=C(CN1C(=O)c2cccc3cccc(c23)C1=O)N1CCC(NC(=S)NC2CCCC2)CC1
CC50: > 100 µg/mL
--
molecular-string: O=C1c2cccc3cccc(c23)C(=O)N1CCN1CCN(C(=S)Nc2ccccc2)CC1
CC50: > 100 µg/mL
--
molecular-string: O=C1c2cccc3cccc(c23)C(=O)N1CCN1CCN(C(=S)NC2CCCCC2)CC1
CC50: > 20 µg/mL
--
molecular-string: O=C(CN1C(=O)c2cccc3cccc(c23)C1=O)NC1CCN(C(=S)Nc2ccccc2)CC1
CC50: > 200 µg/mL
--
molecular-string: O=C(CN1C(=O)c2cccc3cccc(c23)C1=O)N1CCC(NC(=S)Nc2ccccc2)CC1
CC50: > 100 µg/mL
--
molecular-string: O=C(CN1C(=O)c2cccc3cccc(c23)C1=O)N1CCC(NC(=S)NC2CCCCC2)CC1
CC50: > 100 µg/mL
--
molecular-string: O=C(CN1C(=O)c2cccc3cccc(c23)C1=O)NC1CCN(C(=S)NC2CCCCCC2)CC1
CC50: > 100 µg/mL
--
molecular-string: O=C(CN1C(=O)c2cccc3cccc(c23)C1=O)N1CCN(C(=S)NC2CCCCC2)CC1
CC50: > 100 µg/mL
--
molecular-string: O=C1c2cccc3cccc(c23)C(=O)N1CCN1CCN(C(=S)NC2CCCC2)CC1
CC50: > 20 µg/mL
--
molecular-string: O=C(CN1C(=O)c2cccc3cccc(c23)C1=O)N1CCC(NC(=S)NC2CCCCCC2)CC1
CC50: > 100 µg/mL

The following compounds each have a reported value; give each one's CC50.
1. O=C1c2cccc3cccc(c23)C(=O)N1CCN1CCN(C(=S)NC2CCCCCC2)CC1
2. O=C(CN1C(=O)c2cccc3cccc(c23)C1=O)NC1CCN(C(=S)NC2CCCCC2)CC1
3. O=C(CCN1C(=O)c2cccc3cccc(c23)C1=O)N1CCN(C(=S)NC2CCCCC2)CC1

Solution:
> 20 µg/mL
> 10 µg/mL
> 50 µg/mL

----------
assay-text: Selectivity index, ratio of CC50 for African green monkey Vero cells to MIC for Staphylococcus aureus ATCC 29213
Assay type: toxicity, cell-based
conditions-used: read-out: Selectivity Index
reported-metric: selectivity ratio

molecular-string: O=C(CN1C(=O)c2cccc3cccc(c23)C1=O)N1CCC(NC(=S)Nc2ccccc2)CC1
result: > 200
//
molecular-string: O=C(CN1C(=O)c2cccc3cccc(c23)C1=O)NC1CCN(C(=S)NC2CCCCC2)CC1
result: > 40
//
molecular-string: O=C1c2cccc3cccc(c23)C(=O)N1CCN1CCN(C(=S)NC2CCCCC2)CC1
result: > 160
//
molecular-string: O=C1c2cccc3cccc(c23)C(=O)N1CCN1CCN(C(=S)NC2CCCC2)CC1
result: > 160
//
molecular-string: O=C1c2cccc3cccc(c23)C(=O)N1CCN1CCN(C(=S)Nc2ccccc2)CC1
result: > 50
//
molecular-string: O=C(CN1C(=O)c2cccc3cccc(c23)C1=O)NC1CCN(C(=S)Nc2ccccc2)CC1
result: > 50
//
molecular-string: O=C(CN1C(=O)c2cccc3cccc(c23)C1=O)N1CCC(NC(=S)NC2CCCCCC2)CC1
result: > 400

Moving on to another compound below.
Problem: Value lookup for selectivity ratio; key = O=C(CN1C(=O)c2cccc3cccc(c23)C1=O)NC1CCN(C(=S)NC2CCCCCC2)CC1
Solution: > 200

----------
What MIC was measured for each of the following?
Tested on: Staphylococcus aureus
assay-text: Antibacterial activity against Staphylococcus aureus ATCC 29213 assessed as bacterial growth inhibition incubated for 16 to 18 hrs by CLSI based antibiotic susceptibility testing method
Format: functional
conditions-used: time 16-18 hrs
One number for each entry, in µg/mL.

Worked cases, MIC given:
compound: O=C(CCN1C(=O)c2cccc3cccc(c23)C1=O)N1CCN(C(=S)NC2CCCCC2)CC1
study-system: Staphylococcus aureus
unit-descriptor: µg/mL
MIC: 1
//
compound: C[C@H]1COc2c(N3CCN(C)CC3)c(F)cc3c(=O)c(C(=O)O)cn1c23 [LEVOFLOXACIN ANHYDROUS]
study-system: Staphylococcus aureus
unit-descriptor: µg/mL
MIC: 0.063
//
compound: O=C(CN1C(=O)c2cccc3cccc(c23)C1=O)N1CCC(NC(=S)Nc2ccccc2)CC1
study-system: Staphylococcus aureus
unit-descriptor: µg/mL
MIC: 0.5

Problem: // MIC lookup, key: O=C1c2cccc3cccc(c23)C(=O)N1CCN1CCN(C(=S)Nc2ccccc2)CC1
Solution: 2

----------
Task for the reader: assign each of the following compounds its reported MIC.
System: Staphylococcus aureus
assay-text: Antibacterial activity against methicillin/ceftriaxone-resistant Staphylococcus aureus NRS10194 clinical isolate assessed as bacterial growth inhibition incubated for 16 to 18 hrs by CLSI based antibiotic susceptibility testing method
Format: functional
conditions-used: time 16-18 hrs
Give bare numbers, in µg/mL.

These recorded examples may help you get a feel for the data.
compound: O=C(CN1C(=O)c2cccc3cccc(c23)C1=O)NC1CCN(C(=S)NC2CCCCC2)CC1
MIC [µg/mL]: 0.25
--
compound: O=C(CN1C(=O)c2cccc3cccc(c23)C1=O)N1CCC(NC(=S)NC2CCCCCC2)CC1
MIC [µg/mL]: 0.25
--
compound: O=C(CN1C(=O)c2cccc3cccc(c23)C1=O)N1CCC(NC(=S)NC2CCCCC2)CC1
MIC [µg/mL]: 0.125
--
compound: O=C(CN1C(=O)c2cccc3cccc(c23)C1=O)N1CCC(NC(=S)NC2CCCC2)CC1
MIC [µg/mL]: 0.06
--
compound: O=C(CN1C(=O)c2cccc3cccc(c23)C1=O)NC1CCN(C(=S)NC2CCCCCC2)CC1
MIC [µg/mL]: 1
--
compound: C[C@H]1COc2c(N3CCN(C)CC3)c(F)cc3c(=O)c(C(=O)O)cn1c23 [LEVOFLOXACIN ANHYDROUS]
MIC [µg/mL]: 0.125
--
compound: O=C(CN1C(=O)c2cccc3cccc(c23)C1=O)N1CCC(NC(=S)Nc2ccccc2)CC1
MIC [µg/mL]: 1
--
compound: O=C1c2cccc3cccc(c23)C(=O)N1CCN1CCN(C(=S)Nc2ccccc2)CC1
MIC [µg/mL]: 4
--
compound: C[C@@H](O)[C@H]1C(=O)N2C(C(=O)O)=C(S[C@@H]3CN[C@H](C(=O)N(C)C)C3)[C@H](C)[C@H]12 [MEROPENEM]
MIC [µg/mL]: 1
--
compound: O=C1c2cccc3cccc(c23)C(=O)N1CCN1CCN(C(=S)NC2CCCCCC2)CC1
MIC [µg/mL]: 0.5

Hello, I would appreciate it if you could give MIC for each entry below.
1. O=C(CN1C(=O)c2cccc3cccc(c23)C1=O)NC1CCN(C(=S)Nc2ccccc2)CC1
2. O=C(CCN1C(=O)c2cccc3cccc(c23)C1=O)N1CCN(C(=S)NC2CCCCC2)CC1
3. O=C(CN1C(=O)c2cccc3cccc(c23)C1=O)N1CCN(C(=S)NC2CCCCC2)CC1
4. O=C1c2cccc3cccc(c23)C(=O)N1CCN1CCN(C(=S)NC2CCCC2)CC1

Solution:
1: 4; 2: 2; 3: 0.125; 4: 0.125

----------
Test system: Staphylococcus aureus
assay-text: Antibacterial activity against methicillin/ceftriaxone/meropenem-resistant Staphylococcus aureus NRS10191 clinical isolate assessed as bacterial growth inhibition incubated for 16 to 18 hrs by CLSI based antibiotic susceptibility testing method
Type: functional
conditions-used: time 16-18 hrs
reported-metric: MIC (µg/mL)
Give bare numbers, in µg/mL.

Study these solved cases before continuing.
compound: O=C(CN1C(=O)c2cccc3cccc(c23)C1=O)N1CCC(NC(=S)Nc2ccccc2)CC1
reported-metric: MIC
numeric-readout: 0.25

compound: C[C@H]1COc2c(N3CCN(C)CC3)c(F)cc3c(=O)c(C(=O)O)cn1c23 [LEVOFLOXACIN ANHYDROUS]
reported-metric: MIC
numeric-readout: 16

compound: O=C(CN1C(=O)c2cccc3cccc(c23)C1=O)NC1CCN(C(=S)NC2CCCCC2)CC1
reported-metric: MIC
numeric-readout: 0.125

Dear colleague, could you please provide MIC for the compounds listed below?
1. O=C1c2cccc3cccc(c23)C(=O)N1CCN1CCN(C(=S)Nc2ccccc2)CC1
2. O=C(CN1C(=O)c2cccc3cccc(c23)C1=O)N1CCC(NC(=S)NC2CCCC2)CC1
3. O=C1c2cccc3cccc(c23)C(=O)N1CCN1CCN(C(=S)NC2CCCCCC2)CC1

Solution:
1. 2
2. 0.06
3. 1

----------
Kindly supply the reported log10 of MIC values for the records listed here.
System: Staphylococcus aureus
assay-text: Antibacterial activity against methicillin/ceftriaxone/meropenem-resistant Staphylococcus aureus NRS10198 clinical isolate assessed as bacterial growth inhibition incubated for 16 to 18 hrs by CLSI based antibiotic susceptibility testing method
Format: functional
conditions-used: time 16-18 hrs
Values reflect log10 of reported MIC (µg/mL).

molecule: C[C@@H](O)[C@H]1C(=O)N2C(C(=O)O)=C(S[C@@H]3CN[C@H](C(=O)N(C)C)C3)[C@H](C)[C@H]12 [MEROPENEM]
study-system: Staphylococcus aureus
numeric-readout: 1.81
//
molecule: C[C@H]1COc2c(N3CCN(C)CC3)c(F)cc3c(=O)c(C(=O)O)cn1c23 [LEVOFLOXACIN ANHYDROUS]
study-system: Staphylococcus aureus
numeric-readout: 1.51
//
molecule: O=C(CN1C(=O)c2cccc3cccc(c23)C1=O)NC1CCN(C(=S)NC2CCCCC2)CC1
study-system: Staphylococcus aureus
numeric-readout: -0.60

Below are some molecules; for each one, tell me its log10 of MIC.
1. O=C1c2cccc3cccc(c23)C(=O)N1CCN1CCN(C(=S)NC2CCCCCC2)CC1
2. O=C(CN1C(=O)c2cccc3cccc(c23)C1=O)N1CCC(NC(=S)NC2CCCC2)CC1
3. O=C(CN1C(=O)c2cccc3cccc(c23)C1=O)N1CCN(C(=S)NC2CCCCC2)CC1
4. O=C(CN1C(=O)c2cccc3cccc(c23)C1=O)NC1CCN(C(=S)Nc2ccccc2)CC1
5. O=C(CN1C(=O)c2cccc3cccc(c23)C1=O)N1CCC(NC(=S)Nc2ccccc2)CC1

Solution:
1. 0.00
2. -1.22
3. -0.60
4. 0.30
5. -0.60
